Readings of melting point for the listed molecules

[
  {
    "molecule": "COc1ccc(C(=O)N2CCC(Nc3c(Cl)cccc3Cl)c3ccccc32)cc1OC (centres unmarked)",
    "melting point": "154 to 156 °C"
  },
  {
    "molecule": "COc1ccc(C(=O)N2CCC(Nc3ccc(C)c(Cl)c3)c3ccccc32)cc1OC (centres unmarked)",
    "melting point": "94 to 96 °C"
  },
  {
    "molecule": "COc1cc(C(=O)N2c3ccccc3[C@@H](Nc3ccccc3)C[C@@H]2C)cc(OC)c1OC (relative stereo)",
    "melting point": "205 °C"
  },
  {
    "molecule": "COc1ccc(C(=O)N2c3ccccc3C(Nc3ccc(Br)cc3)CC2C)cc1OC (centres unmarked)",
    "melting point": "173 to 175 °C"
  }
]

# molecule C[C@H]1C[C@H](Nc2ccccc2)c2ccccc2N1C(=O)c1ccc2c(c1)OCO2 (relative stereo) ; its melting point = 175 °C

# molecule COc1ccc(C(=O)N2CCC(Nc3cccc(Cl)c3)c3ccccc32)cc1OC (centres unmarked) ; its melting point = 160 °C

# molecule COc1ccc(C(=O)N2c3ccccc3[C@@H](Nc3cccc(C)n3)C[C@@H]2C)cc1OC (relative stereo) ; its melting point = 184 to 186 °C

# molecule C[C@H]1C[C@H](Nc2ccccc2)c2ccccc2N1C(=O)c1ccc(Br)o1 (relative stereo) ; its melting point = 117 to 118 °C

* * *

Readings of melting point for the listed molecules

[
  {
    "molecule": "COc1ccc(C(=O)N2CCC(Nc3ccccc3)c3cc(Cl)ccc32)cc1OC (centres unmarked) [Example 48]",
    "val": "188 to 189 °C"
  },
  {
    "molecule": "COc1ccc(C(=O)N2CCC(N(C)c3ccc(Br)cc3)c3ccccc32)cc1OC (centres unmarked) [Example 37]",
    "val": "73 to 74 °C"
  },
  {
    "molecule": "COc1cc(C(=O)N2c3ccccc3C(Nc3ccccc3)CC2C)cc(OC)c1OC (centres unmarked) [Example 6]",
    "val": "300 °C"
  },
  {
    "molecule": "CCC1CC(N(C)c2ccccc2)c2ccccc2N1C(=O)c1ccc(OC)c(OC)c1 (centres unmarked) [Example 54]",
    "val": "146 to 148 °C"
  },
  {
    "molecule": "COc1ccc(C(=O)N2CCC(Nc3ccc(Cl)cc3)c3ccccc32)cc1OC (centres unmarked) [Example 14]",
    "val": "131 °C"
  },
  {
    "molecule": "COc1ccc(C(=O)N2CCC(Nc3ccc4ncccc4c3)c3ccccc32)cc1OC (centres unmarked) [Example 21]",
    "val": "116 to 118 °C"
  }
]

--- query ---
# molecule COc1ccc(C(=O)N2CCC(Nc3ccccc3C(C)C)c3ccccc32)cc1OC.Cl (centres unmarked) ; its melting point = 93 to 96 °C

* * *

Where a name gives a salt, the structure may show the parent alone.
value kind: melting point

Worked set:
[
  {
    "compound": "C[C@H]1C[C@@H](Nc2ccccc2)c2ccccc2N1C(=O)c1ccncc1 (relative stereo) (hydrate or solvate) [Example 3]",
    "val": "210 °C"
  },
  {
    "compound": "COc1ccc(C(=O)N2CCC(N(C)c3ccccc3Cl)c3ccccc32)cc1OC (stereo not shown)",
    "val": "146 to 147 °C"
  },
  {
    "compound": "COc1ccc(C(=O)N2CCC(Nc3ccccc3)c3ccccc32)cc1OC (stereo not shown)",
    "val": "155 to 156 °C"
  },
  {
    "compound": "COc1ccc(C(=O)N2CCC(N(C)c3ccccc3)c3ccccc32)cc1OC (stereo not shown)",
    "val": "143 to 144 °C"
  },
  {
    "compound": "C[C@H]1C[C@@H](Nc2ccccc2)c2ccccc2N1C(=O)c1ccccn1 (relative stereo)",
    "val": "157 °C"
  }
]

# compound `COc1ccc(C(=O)N2CCN(Cc3ccccc3)c3ccccc32)cc1OC` ; its melting point = 111 to 112 °C

# compound COc1ccc(C(=O)N2CCC(Nc3ccccc3Cl)c3ccc(Cl)cc32)cc1OC (stereo not shown) (as salt: hydrochloride) ; its melting point = 74 to 76 °C

# compound COc1ccc(C(=O)N2CCC(Oc3ccc(Br)cc3)c3ccccc32)cc1OC (stereo not shown) ; its melting point = 56 to 57 °C

# compound C[C@H]1C[C@@H](Nc2ccccc2)c2ccccc2N1C(=O)c1ccc(-c2ccc(Cl)cc2)cc1 (relative stereo) ; its melting point = 193 to 194 °C

# compound COc1ccc(C(=O)N2CCC(Nc3ccccc3Cl)c3cc(Cl)ccc32)cc1OC (stereo not shown) ; its melting point = 87 to 89 °C

* * *

Readings of melting point for the listed molecules

# molecule COc1ccc(C(=O)N2CCC(Nc3ccc(Br)cc3)c3ccccc32)cc1OC (stereo not drawn) [Example 34] ; its melting point = 130 °C

# molecule COc1ccc(C(=O)N2CCC(Nc3ccccc3Cl)c3ccccc32)cc1OC (stereo not drawn) [Example 23] ; its melting point = 92 to 93 °C

# molecule COc1ccc(C(=O)N2CCC(Nc3ccc(Cl)cc3)c3cc(Cl)ccc32)cc1OC (stereo not drawn) [Example 47] ; its melting point = 176 to 178 °C

# molecule COc1ccc(C(=O)N2CCC(N(C)c3ccccc3C)c3ccccc32)cc1OC (stereo not drawn) [Example 25] ; its melting point = 170 to 171 °C

# molecule COc1ccc(C(=O)N2c3ccccc3[C@H](N(C)c3ccccc3)C[C@@H]2C)cc1OC (racemic) [Example 28] ; its melting point = 180 to 181 °C

# molecule COc1ccc(C(=O)N2CCC(Nc3ccccc3F)c3ccccc32)cc1OC (stereo not drawn) [Example 24] ; its melting point = 133 to 134 °C

# molecule COc1ccc(C(=O)N2CCC(Nc3ccccn3)c3ccccc32)cc1OC (stereo not drawn) [Example 22] ; its melting point = 156 to 157 °C

# molecule C[C@H]1C[C@@H](Nc2ccccc2)c2ccccc2N1C(=O)c1ccncc1 (relative stereo) [Example 3] ; its melting point = 121 °C

# molecule COc1ccc(C(=O)N2CCC(Nc3ccc4c(c3)OCO4)c3ccccc32)cc1OC (stereo not drawn) [Example 31] ; its melting point = 135 to 136 °C

# molecule COc1ccc(C(=O)N2CCC(Nc3ccccc3)c3ccc(Cl)cc32)cc1OC (stereo not drawn) [Example 50] ; its melting point = 125 to 126 °C

# molecule COc1ccc(C(=O)N2CCN(Cc3ccc(-c4ccccc4)cc3)c3ccccc32)cc1OC [Example 42] ; its melting point = 133 to 134 °C

# molecule CC1CC(Nc2ccccc2)c2ccccc2N1C(=O)c1ccc2c(c1)OCO2 (stereo not drawn) [Example 5] ; its melting point = 175 °C

# molecule COc1ccc(C(=O)N2c3ccccc3C(Nc3ccccc3Cl)CC2C)cc1OC (stereo not drawn) [Example 27] ; its melting point = 148 to 150 °C

# molecule COc1ccc(C(=O)N2c3ccccc3C(Nc3ccc(Cl)cc3Cl)CC2C)cc1OC (stereo not drawn) [Example 43] ; its melting point = 165 to 167 °C

# molecule COc1ccc(C(=O)N2CCC(N(C)c3ccc(Cl)cc3)c3ccccc32)cc1OC (stereo not drawn) [Example 36] ; its melting point = 72 to 74 °C
